Every entry's value here was drawn from the RNAGym collection of RNA variant scans (doi:10.7554/elife.80360).

B1: Twister Ribozyme (parent)
chain: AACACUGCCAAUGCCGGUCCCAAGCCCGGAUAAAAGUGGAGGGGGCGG

Variants of: B1
assay info: self-cleavage, relative activity (ratio to wild type); higher = more cleavage; co-transcriptional
measured quantity: self-cleavage
Please give only the number in your answer, with no unit.

[
  {
    "residue codes": "AACACUGCCAAUGCCGGUCCAAAGCCCGGAUAAAAGUGGAGGGGGUGG [C21A C46U]",
    "self-cleavage": 0.13
  }
]

Query block: # return recorded self-cleavage for input AACACUGCCAAUGCCGGUCCCAAGCCCGGACAAAAGUGGAGGGCGCGG [U31C G44C]
Result block: 0.976

Query block: Complete the entry with self-cleavage for AACACUGCCAAUGCCGAUCCCAAGCCCGGAUAAAAGUGGAGGGGGCAG [G17A G47A]
Result block: 0.297
